- procedure text: Toxicity liver stage against HepG2, at 10uM
- Assay type: cell-based
- Design: test concentration 10 uM, cell line HepG2-A16-CD81EGFP
- test context: human, HepG2-A16-CD81EGFP cells; read-out: INHIBITION
property measured: cytotoxicity at 10 µM (%)
Numbers only, in %.

Below, each entry is followed by its recorded cytotoxicity at 10 µM result.
compound: CCc1ccccc1-n1cc(O)c(C(=O)N2CCCCC2)n1
cytotoxicity at 10 µM, %: 0.495
//
compound: COCCn1c2c(ccc1=O)CC(NCc1cccnc1OC)CC2 (configuration not stated)
cytotoxicity at 10 µM, %: -106
//
compound: O=S1(=O)C[C@@H]2[C@H](C1)N(Cc1ncc[nH]1)CCN2Cc1cccnc1
cytotoxicity at 10 µM, %: 0.875
//
compound: CN1CCCCc2c1nc1c(c2N)CCC1
cytotoxicity at 10 µM, %: 8.45
//
compound: O=C(Cn1cnnn1)Nc1ccc(F)cc1OCC1CC1
cytotoxicity at 10 µM, %: 5.38

// each listed compound needs a value for cytotoxicity at 10 µM
1. Cc1ccccc1CN(C)C(C(N)=O)c1ccccc1 (configuration not stated)
2. COCC(=O)N1CC[C@@H](O)[C@@H]1Cc1ccccc1
3. COc1ccc(CN(Cc2ccco2)Cc2[nH]cnc2C)c(OC)c1
4. N#Cc1cnc2ccccc2c1N1CCC(C(=O)O)CC1

Result:
13.1
-1.26
-1.57
4.28

* * *

- procedure text: Toxicity liver stage against HepG2, at 10uM
- Type: cell-based
- Design: test concentration 10 uM, cell line HepG2-A16-CD81EGFP
- test context: human, HepG2-A16-CD81EGFP cells; read-out: INHIBITION
property measured: cytotoxicity at 10 µM (%)
Give bare numbers, in %.

compound: CCOC(=O)C1CCCN(Cc2cc(C#N)n(C)c2C)C1 (stereo unspecified)
readout unit: %
cytotoxicity at 10 µM: 0.0308
//
compound: COc1cccc(Cc2nnc(SCCS(C)(=O)=O)o2)c1
readout unit: %
cytotoxicity at 10 µM: 2.72
//
compound: Cn1nccc1C(=O)N1Cc2ccccc2OC2(CCOCC2)C1
readout unit: %
cytotoxicity at 10 µM: -24.7
//
compound: O=C([C@@H]1CCS(=O)(=O)[C@@H]2CN(c3ncccn3)C[C@@H]21)N1CCOCC1
readout unit: %
cytotoxicity at 10 µM: -100
//
compound: CCN(CCCNC(=O)c1ccc(C)[nH]c1=O)S(C)(=O)=O
readout unit: %
cytotoxicity at 10 µM: -8.01

Let's switch to this compound now.
For reference, reported cytotoxicity at 10 µM for Nc1nc(NCCc2[nH]nc3c2CCCC3)cc(N2CCOCC2)n1 stands at 0.666

* * *

- procedure text: Toxicity liver stage against HepG2, at 10uM
- Type: cell-based
- Parameters: test concentration 10 uM, cell line HepG2-A16-CD81EGFP
- test context: human, HepG2-A16-CD81EGFP cells; read-out: INHIBITION
For each record, write down the corresponding cytotoxicity at 10 µM.
One number for each entry, in %.

Below, each entry is followed by its recorded cytotoxicity at 10 µM result.
molecule: O=C(NCCc1cccc(F)c1)c1nc2c(s1)CCCN2C(=O)C1CC1
readout unit: %
cytotoxicity at 10 µM: -91.4
//
molecule: OCC1CCN(c2ccc(NCc3ccsc3)nc2)CC1
readout unit: %
cytotoxicity at 10 µM: 8.94
//
molecule: CN(C)c1ccc(C(=O)N2CCCN(Cc3cscn3)CC2)nn1
readout unit: %
cytotoxicity at 10 µM: -9.39

// each listed molecule needs a value for cytotoxicity at 10 µM
1. CN1CCC2(COCCN(Cc3ccc4c(c3)OCO4)C2)C1 (stereo not given)
2. O=C(CN1CCCCC1Cn1cncn1)NCCOc1ccccc1 (stereo not given)
3. CC(C)(CO)CCCNC(=O)NC1(c2ccccc2F)CC1
4. NC(=O)CCNCc1c(Cl)cccc1N1CCCC1
5. O=C1Nc2ccccc2/C1=C1\CCCCCN1

Result:
1. -2.05
2. -3.54
3. 9.08
4. 8.15
5. 13.6

// each listed molecule needs a value for cytotoxicity at 10 µM
1. COc1ccc2c(ccn2CC(=O)N2CCCC2Cn2cccn2)c1 (stereo not given)
2. O=C1CN(CC2CC2)Cc2nc(NCc3ccccc3)sc21
3. CNc1nc(N2CCN(Cc3ccsc3)C(CCO)C2)nc2c1CCC2 (stereo not given)
4. CC(C)c1nnc2n1CCN(Cc1ccc3c(c1)OCCO3)C2
5. OCC1CCC2(CC1)CN(Cc1ccccc1F)Cc1ccccc1O2 (stereo not given)
6. CCc1nc(C)c(C(=O)N(C)Cc2cnc3ccccn23)o1
7. CCc1nc(CNCC2CCCN2c2cccnn2)no1 (stereo not given)
8. O=C(c1ccoc1)N1CC[C@@H]2O[C@H](COCc3ccccn3)CC[C@@H]21

Result:
1: -0.429; 2: -12.3; 3: 3.96; 4: -0.234; 5: 3.68; 6: -1.94; 7: -12.6; 8: 5.48

// each listed molecule needs a value for cytotoxicity at 10 µM
1. CCOCc1ncn2c1CN(C(=O)Nc1cccc(C)c1)CC2
2. COCCN(Cc1c(C)nn(C)c1C)C(=O)C1COc2ccccc2C1 (stereo not given)
3. CSc1ccc(CN2CCn3nc(CNC(C)=O)cc3C2)cc1
4. COCC(NC(=O)NCc1sccc1C)c1ccco1 (stereo not given)
5. CC(=O)N1CC(=O)N(c2cnn(C)c2)CC12CCN(Cc1cccs1)C2 (stereo not given)
6. Cc1nc(-c2cccc(N3CCC(NC4CCOCC4)CC3)c2)cs1
7. CCn1cc(-c2nn3c(C(F)(F)F)nnc3s2)cn1

Result:
1: -8.92; 2: -3.87; 3: 17.4; 4: -3.25; 5: 2.26; 6: -10.1; 7: -12.3

// each listed molecule needs a value for cytotoxicity at 10 µM
1. Cc1nc(C2CCCN(S(C)(=O)=O)C2)sc1Br (stereo not given)
2. CCS(=O)(=O)CC(=O)N1CCCC1c1noc(C2CC2)n1 (stereo not given)

Result:
[-10.3, -12.9]

* * *

- procedure text: Toxicity liver stage against HepG2, at 10uM
- Type: cell-based
- Set-up: test concentration 10 uM, cell line HepG2-A16-CD81EGFP
- test context: human, HepG2-A16-CD81EGFP cells; read-out: INHIBITION
property measured: cytotoxicity at 10 µM (%)
Give bare numbers, in %.

Below, each entry is followed by its recorded cytotoxicity at 10 µM result.
compound: CCn1nc(C)cc1C(=O)Nc1cc(F)ccc1OCC1CCCO1 (stereo unspecified)
cytotoxicity at 10 µM / %: 2.89

compound: Cc1nn(C)cc1CCC(=O)N1CCCC(n2cncn2)C1 (stereo unspecified)
cytotoxicity at 10 µM / %: 1.9

compound: O=C1CN(Cc2cnc3c(-c4ccccc4)cnn3c2)CCCN1
cytotoxicity at 10 µM / %: 3.32

compound: CN(CCC#N)C(=O)C(C)(C)Oc1ccc(C(N)=O)cc1
cytotoxicity at 10 µM / %: 0.676

compound: O=C(Cc1ccccn1)N1C[C@@H](Oc2cccnc2)[C@H]2OCCC[C@H]21
cytotoxicity at 10 µM / %: 7.8

compound: CNC(=O)c1cn2cc(-c3ccccc3Cl)n(CC3CC3)c(=O)c2n1
cytotoxicity at 10 µM / %: 0.562

compound: CN(Cc1ccncc1)C1CCC[C@@H]2CN(c3ncccn3)C[C@H]12 (stereo partly specified)
cytotoxicity at 10 µM / %: -3.21

compound: Cc1ccc(C(C(=O)NCCc2nc(C)cc(C)n2)N(C)C)cc1 (stereo unspecified)
cytotoxicity at 10 µM / %: -1.3

compound: CC(C)n1ncc2c1NC(=O)CSC2C(C)(C)C (stereo unspecified)
cytotoxicity at 10 µM / %: 4.47

compound: O=C(Cc1cccc(O)c1)NCCCNC(=O)c1cccc(F)c1
cytotoxicity at 10 µM / %: 1.65

For reference, reported cytotoxicity at 10 µM for Cn1c(=O)ccn(CC(=O)NCC2Cc3ccccc3O2)c1=O (stereo unspecified) stands at -0.387

* * *

For each record, write down the corresponding cytotoxicity at 10 µM.
- procedure text: Toxicity liver stage against HepG2, at 10uM
- Assay type: cell-based
- Parameters: test concentration 10 uM, cell line HepG2-A16-CD81EGFP
- test context: human, HepG2-A16-CD81EGFP cells; read-out: INHIBITION
Give bare numbers, in %.

compound: CC(C)c1ncncc1C(=O)N1CCN(Cc2cscn2)CC1
test value: -5.75

// each listed compound needs a value for cytotoxicity at 10 µM
1. Cc1cnn(CC2CCCN2CCc2nc3ccccc3c(=O)[nH]2)c1 (configuration not stated)
2. Cc1cnn(CCNc2nc(C)cc(N(C)C)n2)c1
3. COc1ccc(OCCN(C)S(=O)(=O)N2CCOCC2)cc1
4. Cc1nc(N2CCOCC2)nc2c1CCN(C(=O)N1CCCC1)CC2
5. Cc1ccc(CNS(=O)(=O)C=c2[nH]c(=O)n3cccc3c2=O)cc1

Result:
1. -5.79
2. 5.36
3. 3.11
4. 0.64
5. 6.38

// each listed compound needs a value for cytotoxicity at 10 µM
1. CCCS(=O)(=O)CC(=O)NC(C)c1cccc(-n2cccn2)c1 (configuration not stated)
2. Cc1cnc(-c2nc(O)c3c(n2)CN(C(=O)C2CCCC2)CC3)cn1
3. CCc1c(NCc2cccnc2)cnn1CC(C)C
4. Cc1noc(C2CCC3(CCN(C(=O)c4ccnnc4)CC3)O2)n1 (configuration not stated)
5. Cc1cccc(C(=O)N2C[C@@H]3C(CC(=O)Nc4cccnc4)[C@@H]3C2)n1 (some centres not stated)
6. O=C(CN1C(=O)CCC1=O)N1CCC(S(=O)(=O)Cc2ccco2)CC1
7. COc1ccc(CN2CCc3ncnc(C4CCOC4)c3CC2)cc1 (configuration not stated)

Result:
1: 6; 2: -1.39; 3: -0.625; 4: 6.69; 5: -0.39; 6: 3.79; 7: -9.25

// each listed compound needs a value for cytotoxicity at 10 µM
1. Cc1ccc(NC(=O)N(C)Cc2cnn(C)c2)cc1OCC(F)F
2. Cc1ccc(Nc2nccc(C3CCN(C(=O)CO)C3)n2)nc1 (configuration not stated)

Result:
1. -0.243
2. -2.56

// each listed compound needs a value for cytotoxicity at 10 µM
1. CC(C)OCCC1CCCCN1S(=O)(=O)c1cnn(C)c1 (configuration not stated)
2. O=S(=O)(NC1=NCN(CCc2cccs2)CN1)c1ccc(Cl)cc1

Result:
1. 5.68
2. -2.03

// each listed compound needs a value for cytotoxicity at 10 µM
1. Cc1ccc2[nH]c(=O)cc(C(=O)N[C@@H]3C[C@@H](CO)N(C)C3)c2c1
2. CC(NC(=O)N1CCN(c2ccccc2)CC1)c1nncn1C (configuration not stated)
3. CN1CC2(CCN(C(=O)COc3ccc(Cl)cc3Cl)CC2)OC1=O
4. CN(C(=O)c1ccccc1N(C)S(C)(=O)=O)c1ccc(C(C)(C)C)cc1
5. c1ccc(-c2noc(CNC3CCc4ncnn4C3)n2)nc1 (configuration not stated)
6. Cc1nc(N2CCN(C(=O)C(C)(C)C)CC2)cc(-n2cnc(C)c2C)n1

Result:
1. 5.43
2. 2.36
3. -3.25
4. 5.17
5. -11.7
6. -23.2

// each listed compound needs a value for cytotoxicity at 10 µM
1. Cc1ccc(C)c(OC2CCN(C(=O)CNc3ccccc3Cl)CC2)c1
2. Cc1ccn(-c2ccnc(N3CCC(N4CCCCC4)CC3)n2)n1
3. CC(=O)Nc1nc(C(=O)NC(C)c2cccnc2)cs1 (configuration not stated)
4. Cc1cc(NC(=O)CN2CCCC2c2noc(C3CC3)n2)n(C)n1 (configuration not stated)
5. Cc1nc2c(c(N3CCC(CCn4cccn4)CC3)n1)CCNCC2
6. CC(C)n1cnnc1CN(C)C(=O)Cn1ccc2ccccc2c1=O
7. Cc1nn(C)c(C)c1S(=O)(=O)N1C[C@@H]2C[C@@H](C)O[C@@H]2C1

Result:
1: 40.2; 2: 4.54; 3: -4.21; 4: -1.16; 5: 4.3; 6: 3.1; 7: 0.788

// each listed compound needs a value for cytotoxicity at 10 µM
1. CCc1ncnc2c1CCN(C(=O)c1ccccn1)CC2
2. CC(C)c1nccc(C2(c3ccccc3Cl)CCNCC2)n1
3. CCc1nn(C)c(Cl)c1CN(CC)Cc1cnn(CC)c1
4. Cc1ccc(OCCC(=O)N(C)CCC#N)cc1C
5. CCn1ccnc1CN1CCN(CCOc2ccc(C#N)cc2)CC1

Result:
1: 2.43; 2: 1.93; 3: 4.36; 4: 6.5; 5: -3.75

// each listed compound needs a value for cytotoxicity at 10 µM
1. CC(C)NC(=O)N1CCC2(CC1)NC(=O)[C@H]1CN(C(=O)N(C)C)C[C@H]12
2. N#CC1(c2ccccc2)CCN(C(=O)C2CCCN(CC(N)=O)C2)CC1 (configuration not stated)
3. O=S(=O)(NCC(O)c1ccc(C(F)(F)F)cc1)C1CC1 (configuration not stated)
4. Cc1ccccc1OC(C(=O)N1CCC2(CC1)CN(C)C(=O)O2)C(C)C (configuration not stated)
5. O=C(Cn1nnc(-c2cc3ccccc3o2)n1)N1CCOCC1
6. CCN1CC2(CCN(CCOCCO)CC2)CC(c2ccccc2)C1=O (configuration not stated)
7. Cc1cc(C(=O)N2CCCC2c2nnc3n2CCCCC3)no1 (configuration not stated)
8. FC(F)(F)CCc1ccnc(NC2CCC(n3cnnc3)CC2)n1 (configuration not stated)

Result:
1. -1.66
2. -7.47
3. -6.9
4. -52.4
5. 7.63
6. 42.4
7. -14
8. -6.71
